We begin with a simple list: items and their reported hERG current change (%, negative = inhibition) at 10uM.
target: human ether-à-go-go-related gene (hERG) potassium channel (human); assay: primary screen, population patch clamp on CHO cells stably expressing hERG; higher = less effect of the substance;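 note: peak tail current of the secondary pulse compared with the same well before compound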
Sequence (Q12809 whole entry, looked up): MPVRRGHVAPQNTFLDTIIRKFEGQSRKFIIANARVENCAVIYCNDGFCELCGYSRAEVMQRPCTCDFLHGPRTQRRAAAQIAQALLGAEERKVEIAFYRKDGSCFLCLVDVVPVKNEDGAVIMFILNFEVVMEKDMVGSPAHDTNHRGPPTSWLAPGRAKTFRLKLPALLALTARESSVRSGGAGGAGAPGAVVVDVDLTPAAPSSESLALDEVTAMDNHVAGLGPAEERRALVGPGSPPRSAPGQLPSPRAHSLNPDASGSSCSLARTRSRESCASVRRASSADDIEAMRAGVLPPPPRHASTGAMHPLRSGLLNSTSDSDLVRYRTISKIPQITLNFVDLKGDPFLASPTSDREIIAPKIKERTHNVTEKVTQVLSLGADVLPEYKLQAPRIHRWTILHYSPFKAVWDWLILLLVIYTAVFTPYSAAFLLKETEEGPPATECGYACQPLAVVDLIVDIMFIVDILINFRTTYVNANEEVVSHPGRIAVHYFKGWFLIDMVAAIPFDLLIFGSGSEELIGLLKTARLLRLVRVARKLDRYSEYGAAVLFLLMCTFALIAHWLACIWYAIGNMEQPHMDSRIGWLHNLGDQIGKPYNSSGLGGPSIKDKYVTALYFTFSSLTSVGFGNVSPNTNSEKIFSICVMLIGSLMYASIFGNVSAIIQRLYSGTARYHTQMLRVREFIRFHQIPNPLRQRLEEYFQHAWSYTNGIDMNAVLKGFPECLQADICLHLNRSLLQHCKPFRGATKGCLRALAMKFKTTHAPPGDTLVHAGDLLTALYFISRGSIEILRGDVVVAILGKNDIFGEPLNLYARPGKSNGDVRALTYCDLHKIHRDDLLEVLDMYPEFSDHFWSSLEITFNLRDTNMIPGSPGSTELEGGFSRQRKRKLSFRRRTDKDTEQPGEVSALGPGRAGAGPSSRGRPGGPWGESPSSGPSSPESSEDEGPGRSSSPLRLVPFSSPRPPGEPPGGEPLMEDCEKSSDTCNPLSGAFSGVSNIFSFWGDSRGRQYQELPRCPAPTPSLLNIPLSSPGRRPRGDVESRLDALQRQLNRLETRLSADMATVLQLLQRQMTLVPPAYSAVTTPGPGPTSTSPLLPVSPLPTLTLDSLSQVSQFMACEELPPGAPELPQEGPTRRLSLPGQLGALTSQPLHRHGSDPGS
Hit rate of the full screen: of about 310,000 compounds, about 14,000 (4.5%) showed an effect of 50% or more. The effect is printed as a negative number. The sample holds strong results, similar compounds and a random draw of the others, so the mix is not that of the screen.
Dear colleague, please send the value followed by its unit.

>>> value("CCc1ccc(NC(=O)COC(=O)CCc2nc3cc(S(=O)(=O)N(CC)CC)ccc3n2C)cc1")
"-60%"
>>> value("CCCCN(C(=O)c1ccc2c(c1)OCO2)c1c(N)n(CCCC)c(=O)[nH]c1=O")
"25.7%"
>>> value("CC1c2c([nH]c3ccccc23)CCC1C(=O)O (centres unmarked)")
"22.4%"
>>> value("CN(C)c1ccc(CNC(=O)CN(C)S(=O)(=O)c2ccc3c(c2)c(=O)n(C)c(=O)n3C)cc1")
"9.67%"
>>> value("COc1ccc(C(CNC(=O)COc2ccc(Br)cc2F)N2CCCC2)cc1 (centres unmarked)")
"-78.6%"
>>> value("Cc1ccc(C2(CCN)CCOC(C(C)C)C2)cc1 (centres unmarked)")
"17%"
>>> value("COc1ccc(OCC(=O)NCC(c2ccc(OC)cc2)N2CCCCC2)cc1 (centres unmarked)")
"-33.1%"
>>> value("CN1C[C@@H]2C(c3ccc(C(F)(F)F)cc3)C3(c4cccnc4)CC2(C3)[C@H]1c1ccccc1 (some centres unmarked)")
"-60%"
>>> value("COc1ccccc1C1(CCNS(=O)(=O)c2ccc(C)cc2)CCOC(C(C)C)C1 (centres unmarked)")
"4.49%"
>>> value("Cn1c(SCc2cc(=O)n3cc(Br)ccc3n2)nnc1C1COc2ccccc2O1 (centres unmarked)")
"-72%"

Sample COc1ccc(C(CC(=O)N2CCC3(CC2)OCCO3)NS(=O)(=O)c2ccc(OC)cc2)cc1 (centres unmarked) ; hERG current change (%, negative = inhibition) at 10uM observed: 7.14%

response.value for `C/C(=N\NC(=O)c1cc(-c2ccc(Br)s2)[nH]n1)c1ccncc1` (field: hERG current change (%, negative = inhibition) at 10uM) = 11.1%

Form: compound = `Cc1ccc(OCc2nnc(SCC(=O)Nc3ccc4c(c3)OCCO4)n2Cc2ccco2)cc1` ; hERG current change (%, negative = inhibition) at 10uM = 6.31%

Cc1ccc(NC(=O)C2(NC(=O)c3cccc(N4C(=O)CSC4c4ccccc4)c3)CCCCC2)cc1 (centres unmarked) yielded hERG current change (%, negative = inhibition) at 10uM of 2.72%

For this compound ( `Cc1ccc(C2=NOC(=O)/C2=C\c2ccc(C)o2)cc1` ), measured hERG current change (%, negative = inhibition) at 10uM is 6.75%

Quick note, hERG current change (%, negative = inhibition) at 10uM for COc1ccc2cc(C3(C)NC(=O)NC3=O)ccc2c1 (centres unmarked) landed at -0.239%

Record CC1(C)CC(=O)CC2(C1)NCC(c1ccccc1)c1c2[nH]c2ccccc12.Cl (centres unmarked) , field hERG current change (%, negative = inhibition) at 10uM: -85.8%

Short answer for Cc1ccc(C2(CCNCc3ccco3)CCOC(C(C)C)C2)cc1 (centres unmarked) : hERG current change (%, negative = inhibition) at 10uM was -35.6%

Per the records, this compound ( `CCN(CC)S(=O)(=O)c1ccc2c(c1)nc(CCC(=O)OCC(=O)Nc1c(F)cccc1F)n2C` ) has hERG current change (%, negative = inhibition) at 10uM equal to -34.6%

Just so you know, measured hERG current change (%, negative = inhibition) at 10uM for `CC(=O)COC(=O)C1=NN(c2ccccc2)C(=O)CC1` came out at 23.7%

For this compound ( `COC(=O)c1sccc1N/N=C/c1cccc(Oc2ccccc2)c1` ), measured hERG current change (%, negative = inhibition) at 10uM is -7.09%

COc1cccc(C2CNC3(CCCC(C)C3)c3[nH]c4ccccc4c32)c1OC.Cl (centres unmarked) yielded hERG current change (%, negative = inhibition) at 10uM of -23.6%

Lookup result for `Cn1c(CCC(=O)OCC(=O)Nc2ccc(Oc3ccccc3)cc2)nc(=O)c2ccccc21` ; measured hERG current change (%, negative = inhibition) at 10uM: -53.3%

Per the records, this compound ( CN1C[C@@H]2C(c3ccccc3)C3(c4cccnc4)CC2(C3)[C@H]1c1ccccc1 (some centres unmarked) ) has hERG current change (%, negative = inhibition) at 10uM equal to -46.5%

The compound listed as COc1ccc(C(CNC(=O)COc2ccccc2C)N2CCCC2)cc1 (centres unmarked) has a reported hERG current change (%, negative = inhibition) at 10uM of -40.8%

Record `Cc1cccc(NS(=O)(=O)c2cc(Cl)ccc2Cl)n1` , field hERG current change (%, negative = inhibition) at 10uM: 22.2%

Sure, the documented hERG current change (%, negative = inhibition) at 10uM for CN1C[C@@H]2C(c3ccccc3)C3(c4ccc(C#N)cc4)CC2(C3)[C@H]1c1ccccc1 (some centres unmarked) is -32.5%

hERG current change (%, negative = inhibition) at 10uM in this record for CN1C[C@@H]2C(c3ccc(C(F)(F)F)cc3)C3(c4ccccc4)CC2(C3)[C@H]1c1ccccc1 (some centres unmarked) : -1.14%

The value of hERG current change (%, negative = inhibition) at 10uM measured for the compound COc1ccc(C(CNC(=O)COc2ccccc2C)N2CCCCC2)cc1 (centres unmarked) turned out to be -20.7%

Recorded hERG current change (%, negative = inhibition) at 10uM (compound CC(C)C1CC(CCNCc2ccc(N(C)C)cc2)(c2ccccc2)CCO1 (centres unmarked) ): -24.6%

// hERG current change (%, negative = inhibition) at 10uM value for ClCC1NCC(c2ccccc2Cl)c2c1[nH]c1ccccc21 (centres unmarked) : 0.482%

Lab note: `Cc1occc1-c1nnc(SCc2cc(=O)n3cc(Br)ccc3n2)n1C` gave hERG current change (%, negative = inhibition) at 10uM of -47.7%

Data credit: paper PMC4336329
